Origin of values: the supplement of paper PMC3334620

molecular target: Ste12 (UniProt P13574); assay: PBM E-score (8-mer binding enrichment) (E-score (-0.5 to 0.5)); higher = stronger / more preferred TF binding; conditions: protein concentration: 200 nM; construct: GST-DNA-binding domain
Sequence (P13574 whole entry, the tested form may be a part): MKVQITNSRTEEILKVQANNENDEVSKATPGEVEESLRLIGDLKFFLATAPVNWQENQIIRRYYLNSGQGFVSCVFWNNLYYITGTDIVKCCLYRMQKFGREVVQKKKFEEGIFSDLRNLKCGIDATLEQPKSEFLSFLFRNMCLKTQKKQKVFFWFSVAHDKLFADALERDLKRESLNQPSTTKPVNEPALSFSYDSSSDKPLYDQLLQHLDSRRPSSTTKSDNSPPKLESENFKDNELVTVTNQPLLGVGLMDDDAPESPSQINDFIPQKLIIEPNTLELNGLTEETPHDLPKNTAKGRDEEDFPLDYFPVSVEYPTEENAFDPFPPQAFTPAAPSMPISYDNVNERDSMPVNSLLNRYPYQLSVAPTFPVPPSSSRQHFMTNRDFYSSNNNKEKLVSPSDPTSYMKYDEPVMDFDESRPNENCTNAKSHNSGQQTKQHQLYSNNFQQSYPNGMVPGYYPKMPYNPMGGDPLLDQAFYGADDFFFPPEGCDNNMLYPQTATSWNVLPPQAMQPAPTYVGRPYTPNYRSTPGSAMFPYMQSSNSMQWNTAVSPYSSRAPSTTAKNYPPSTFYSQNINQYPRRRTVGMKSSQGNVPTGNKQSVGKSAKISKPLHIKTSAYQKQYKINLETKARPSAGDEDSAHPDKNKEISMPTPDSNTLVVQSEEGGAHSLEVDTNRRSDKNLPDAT
Whole data set: some 33,000 sequences, median “E-score (-0.5 to 0.5)” near -0.01, cut for the highest 2% near 0.26. The sample holds the highest values, similar sequences and a random draw of the others, so the mix is not that of the screen.
Tag: yes (1) if measured PBM E-score is not below 0.09, no (0) if it is.

Does "ATCAATTA" have a reported PBM E-score of at least 0.09? yes (1)

Tell me whether PBM E-score is at least 0.09 here: "GGCGCTCA" no (0)

Is reported PBM E-score greater than or equal to 0.09 here: "ATTTTAAC" yes (1)

Hello, I need to know if "CGCAATCA" has measured PBM E-score not below 0.09. Thanks! no (0)

Evaluate "ATTTAACA" : PBM E-score at minimum 0.09? yes (1)

Given "CTAAAATA" , state whether its PBM E-score is at least 0.09. yes (1)

Please check the record "ATTTTAAG" and state if its PBM E-score is at or above 0.09. yes (1)

Answer whether PBM E-score of "ATTCGTAA" is greater than or equal to 0.09. yes (1)

I'd appreciate it if you could say whether "TATAAAAA" has PBM E-score at least equal to 0.09. yes (1)

Is PBM E-score at least 0.09? Consider "CTGTATCA" yes (1)

Could you verify whether the entry "ATCTGAAA" shows PBM E-score of no less than 0.09? yes (1)

Does the reported PBM E-score for "CAGTGGGA" fall at or above the 0.09 mark? no (0)

Exam item: decide whether the reported PBM E-score for "ATGTATCG" is at least 0.09. no (0)

Please check the record "ATGGGAAG" and state if its PBM E-score is at or above 0.09. no (0)

Does the reported PBM E-score for "ACATACAC" fall at or above the 0.09 mark? no (0)

Does PBM E-score meet or surpass 0.09 for "TTCTGCAA" ? yes (1)

Could you verify whether the entry "AACAATAA" shows PBM E-score of no less than 0.09? yes (1)

Say whether "CGCTCAAC" shows PBM E-score of 0.09 or more. no (0)

# bool: PBM E-score of "TTGTGAAA" >= 0.09 yes (1)

Hello, I need to know if "TACTGGAA" has measured PBM E-score not below 0.09. Thanks! yes (1)

Identify whether the reported PBM E-score of the following sequence is 0.09 or greater: "CCACTGAC" no (0)

In plain terms: is recorded PBM E-score at least 0.09 for "CACCGCCC" ? yes (1)

Record "GCAGGTAA" ; criterion: PBM E-score no lower than 0.09. Met? no (0)

Determine whether measured PBM E-score meets or exceeds 0.09 for "CCAGCTAC" no (0)

Is reported PBM E-score greater than or equal to 0.09 here: "CCAGGCTC" no (0)

Test whether the sequence "AACAATTA" records PBM E-score of 0.09 or higher. yes (1)

Dear colleague, could you confirm whether "ATAGAAAC" has PBM E-score at or above 0.09? yes (1)

Say whether "CCCTGAAA" shows PBM E-score of 0.09 or more. yes (1)

Can "CATATAAA" be said to have PBM E-score at or above 0.09? yes (1)

Does PBM E-score meet or surpass 0.09 for "AGGCCAGC" ? no (0)

Check the entry "AAACACTC" : does PBM E-score equal or exceed 0.09? yes (1)

Please indicate if the recorded PBM E-score for "AGTTAAAA" meets or exceeds 0.09. yes (1)

Could you tell me if the measured PBM E-score of "GTAAAATA" reaches 0.09 or more? yes (1)

Form field: PBM E-score at least 0.09? Entry: "GAACATAA" yes (1)

API: above_or_equal(metric=PBM E-score, cutoff=0.09) for item "CTGTGAGA" no (0)

Does the sequence "GAAAAATA" have recorded PBM E-score that is 0.09 or more? yes (1)

Is it the case that "CGCCTAGA" has PBM E-score reaching or exceeding 0.09? no (0)

Hello, I need to know if "CGTCGCGC" has measured PBM E-score not below 0.09. Thanks! no (0)

Say whether "CATGGCAA" shows PBM E-score of 0.09 or more. no (0)

In plain terms: is recorded PBM E-score at least 0.09 for "GTGTATTA" ? yes (1)

Is PBM E-score at least 0.09? Consider "AAACATAA" yes (1)

PBM E-score >= 0.09 for "CCCGCCCC" ? yes (1)

Check the entry "AAACACTA" : does PBM E-score equal or exceed 0.09? yes (1)

Identify whether the reported PBM E-score of the following sequence is 0.09 or greater: "AGATCGTG" no (0)

Has "TAAAAATA" a recorded PBM E-score greater than or equal to 0.09? yes (1)

State whether the measured PBM E-score reaches 0.09, counting equality as reaching it, for "AGGCCTAG" no (0)

Dear colleague, could you confirm whether "AAACGATT" has PBM E-score at or above 0.09? yes (1)

Check if PBM E-score >= 0.09 (inclusive). Item: "ATAAAATA" yes (1)

Does the sequence "CCATCTCA" have recorded PBM E-score that is 0.09 or more? no (0)

Exam item: decide whether the reported PBM E-score for "ACCATAAT" is at least 0.09. yes (1)

Can "CCCCGCCG" be said to have PBM E-score at or above 0.09? yes (1)

Given the entry "GGTGGGAA" , answer whether its PBM E-score meets or surpasses 0.09. yes (1)

PBM E-score >= 0.09 for "ACCGCCCG" ? no (0)

Determine whether measured PBM E-score meets or exceeds 0.09 for "ACGTCTAC" no (0)

Hi, just wondering whether "ATTTTAAA" shows PBM E-score of 0.09 or higher. yes (1)

Form field: PBM E-score at least 0.09? Entry: "ATCAATTC" no (0)

API: above_or_equal(metric=PBM E-score, cutoff=0.09) for item "AATTTTTG" yes (1)

Could you verify whether the entry "CACCGCCA" shows PBM E-score of no less than 0.09? no (0)

Answer whether PBM E-score of "TCGATACA" is greater than or equal to 0.09. yes (1)

Does the reported PBM E-score for "CGTAAAAA" fall at or above the 0.09 mark? yes (1)

Could you please find out whether "AACAATTG" has PBM E-score that meets 0.09 or exceeds it? no (0)

Kindly determine if PBM E-score recorded for "CATGGATC" is above or exactly 0.09. no (0)

Reported PBM E-score reaches at least 0.09 for "TACACGTA" ? no (0)

Textbook exercise: given the entry "CCCGCCCA" , state whether its PBM E-score is greater than or equal to 0.09. yes (1)

Decide: PBM E-score of "AGCCTCTC" >= 0.09? no (0)

Identify whether the reported PBM E-score of the following sequence is 0.09 or greater: "GTGTGAAA" yes (1)

Check this sequence for PBM E-score at or above 0.09: "AGAGTTCA" no (0)

I'd appreciate it if you could say whether "ACCGCCCT" has PBM E-score at least equal to 0.09. no (0)

Is PBM E-score for "AATAAAAA" at or above 0.09? yes (1)

Is the recorded value of PBM E-score equal to or greater than 0.09 for this sequence? "CCCTTAGC" no (0)

State whether the measured PBM E-score reaches 0.09, counting equality as reaching it, for "AGTAAAAA" yes (1)

Decide: is the reported value of PBM E-score for "CAAAAATG" equal to or greater than 0.09? yes (1)

Is the recorded value of PBM E-score equal to or greater than 0.09 for this sequence? "AATATAAA" yes (1)

Does the reported PBM E-score for "AGTGAGCG" fall at or above the 0.09 mark? no (0)

Could you verify whether the entry "TGTAAAAA" shows PBM E-score of no less than 0.09? yes (1)
